Target Or Test System: T1, HA-GCN4 hAPRIL (amino acid residues 105-250) (human, UniProt O75888 105-250)
T1 construct: Bought (R&D Systems); also called HA-tagged GCN4 human APRIL; HA-GCN4-huAPRIL; not shown: N-terminal HA tag; GCN4 isoleucine zipper oligomerization domain
T1 sequence: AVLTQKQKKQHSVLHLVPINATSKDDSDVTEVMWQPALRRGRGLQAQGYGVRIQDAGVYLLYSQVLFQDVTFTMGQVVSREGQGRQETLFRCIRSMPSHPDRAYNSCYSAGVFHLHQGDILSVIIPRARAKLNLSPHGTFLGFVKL
Protocol Notes: blocking ELISA; blocked: human APRIL binding to TACI-Fc
Overview of recorded Relative Activity (normalised to 2419) for various binders
Note: the reply should be a number with no unit written.

In the examples that follow, each entry is paired with its recorded Relative Activity (normalised to 2419).
binder="monoclonal antibody 2419-1406 (antibody, V domains shown) VH: QVQLVQSGAEVKKPGASVKVSCKASGYTFTDYTIHWVRQATGQGLEWMGWIYPLRGSINYAQKFQGRVTMTADKSISTVYMELSSLRSEDTAVYFCARHGAYYSNAFDYWGQGTLVTVSS VL: EIVMTQSPATLSVSPGERATLSCRASESVDNDGIRFLHWYQQKPGQAPRLLIYRASTRATGIPARFSGSGSRTEFTLTISSLQSEDFAVYYCQQSNKDPYTFGGGTKVEIK" meas_value=0.88
binder="monoclonal antibody 4540-063 (antibody, IgG1, V domains shown) VH: QVQLVQSGAELKKPGASVKVSCKASGYTFADYYMNWVRQAPGQGLEWMGWIFPGSGSTYYNQKFQGRVTMTVDKSSSTAYMELSRLRSDDTAVYYCARGDSGRAMDYWGQGTLVTVSS VL: DIQMTQSPSSLSASVGDRVTITCQASQDINKYLAWYQHKPGKAPKLLIHYTSTLETGVPSRFSGSGSGTDFTFTISSLQPEDIATYYCLQYDNLLTFGGGTKVEIK" meas_value=2.43

Problem: Indicate the recorded Relative Activity (normalised to 2419) value for this binder: 2419-1305 (antibody, V domains shown) VH: QVQLVQSGAEVKKPGASVKVSCKASGYTFTDYTIHWVRQATGQGLEWMGWIYPLRGSINYAQKFQGRVTMTANKSISTVYMELSSLRSEDTAVYFCARHGAYYSNAFDYWGQGTLVTVSS VL: EIVMTQSPATLSVSPGERATLSCRASESVDNDGIRFLHWYQQKPGQAPRLLIYRASNRETGIPARFSGSGSGTEFTLTISSLQSEDFAVYYCQQSNKDPYTFGGGTKVEIK
Solution: 1.06
